- test_system: Torsin-1A (Homo sapiens)
- assay: torsin A binders from cell lysate, primary screen, small-molecule microarray, wild-type, 635/667 nm (AID 1149)
- protocol_conditions: COS7 hTOR1A-WT lysate, 635 nm fluorescence, higher = more signal
Entry flag: met if composite z-score reaches 0.7; not met if it does not.

Known results for compounds:
State whether the measured composite z-score reaches 0.7, counting equality as reaching it, for `C=CCOC(=O)[C@H]1[C@@H]2C(=O)O[C@@H](c3ccccc3)[C@@H](c3ccccc3)N2[C@@H](c2ccc(OCCOC(=O)[C@H]3C[C@H]4C(=O)N[C@@H](CCCCNC(C)=O)C(=O)N4[C@H]3c3ccc(O)cc3)cc2)[C@]12C(=O)Nc1ccccc12`
met

State whether the measured composite z-score reaches 0.7, counting equality as reaching it, for `COc1ccc(CCN2C(=O)[C@@]3(Cc4ccccc42)c2ccccc2C(=O)N(Cc2ccccc2OC)[C@H]3c2ccc(CO)cc2)cc1`
not met

State whether the measured composite z-score reaches 0.7, counting equality as reaching it, for `CCCCCCc1nc(-c2cc(C)c(OC)c(C)c2)c(C)c2c1[Si](C(C)C)(C(C)C)OC2`
not met

State whether the measured composite z-score reaches 0.7, counting equality as reaching it, for `C=CC[C@]1(C(=O)O)COC(c2ccc(OCCCO)cc2)=N1`
not met

Consider now this further compound.
State whether the measured composite z-score reaches 0.7, counting equality as reaching it, for `O[C@@H](Cc1ccccc1)[C@@H](/C=C/C1CC1)N(CC#Cc1ccccc1)Cc1cccc(Cl)c1`
not met

====

- test_system: Epidermal growth factor receptor (Homo sapiens)
- assay: EGFR binders on small-molecule microarrays, primary screen, biochemical, small-molecule microarray, 635 nm fluorescence (AID 1104);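 also: score merges 667 nm emission intensity with spot signal to noise over triplicate slides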
- protocol_conditions: EGFR binding, higher = more signal
Entry flag: Met if composite z-score reaches 0.04; Not met if it does not.

State whether the measured composite z-score reaches 0.04, counting equality as reaching it, for CC(=O)c1ccc(C(O)C2C=CC3C(=O)N(c4ccccc4)C(=O)C3N2Nc2ccc(C#N)cc2)cc1 (configuration not stated)
Met

State whether the measured composite z-score reaches 0.04, counting equality as reaching it, for `CCOC(=O)C[C@H]1[C@H](OC(=O)c2ccccc2-c2ccccc2)[C@@H](NC(=O)C2CCCCC2)c2cc(OCCCO)ccc2N1C(=O)Cc1ccc(OC)cc1`
Not met

State whether the measured composite z-score reaches 0.04, counting equality as reaching it, for `Cc1ccc(S[C@]2(C(=O)NCC(F)(F)F)CC(=O)N(Cc3ccccc3)[C@@H]2c2ccc(CO)cc2I)cc1`
Not met

State whether the measured composite z-score reaches 0.04, counting equality as reaching it, for `O=C1O[C@H](c2ccccc2)[C@H](c2ccccc2)N2[C@H]1[C@@H](C(=O)NC[C@H](O)c1ccccc1)[C@]1(C(=O)Nc3ccc(C#CCCO)cc31)[C@H]2c1ccc(OCCO)cc1`
Not met

New cases:
State whether the measured composite z-score reaches 0.04, counting equality as reaching it, for `CCOC(=O)c1ccc(NC(=O)O[C@H]2[C@H](OC(=O)Nc3ccc4c(c3)OCO4)[C@@H](OC(=O)Nc3ccc4c(c3)OCO4)[C@@H](OC)O[C@@H]2CO)cc1`
Met

State whether the measured composite z-score reaches 0.04, counting equality as reaching it, for `C[C@]1(C(=O)NC2CC2)c2ccccc2C(=O)N(Cc2ccccc2)[C@H]1c1ccc(CO)cc1`
Not met

State whether the measured composite z-score reaches 0.04, counting equality as reaching it, for `C[N+](C)(C)CCCC[C@@H]1NC(=O)[C@H]2C[C@@H](C(=O)NCCCCCCN)[C@@H](c3ccc(O)cc3)N2C1=O`
Not met
